measurement_notes: Bioavailability and plasma concentration after midazolam from the bi-dose nasal spray
particulars: human, plasma, inhaled or intranasal
readout_type: bioavailability

(Q) bioavailability lookup needed for Cc1ncc2n1-c1ccc(Cl)cc1C(c1ccccc1F)=NC2 , thanks.
(A) > 83%

Recorded values, source patent US12239780B2.
